Test system: Raji
Experiment: Cytostatic activity against proliferation of Raji/0 cells (human lymphoblast Raji cells)
Type: functional
Conditions: read-out: ID50 (the source's name)
Entries and their IC50 values follow.

Look over these answered cases.
O=c1[nH]c(=O)n([C@@H]2O[C@H](CO)[C@@H](O)[C@H]2O)cc1F [5-FLUOROURIDINE] | 0.023 µg/mL
O=c1[nH]cc(I)c(=O)[nH]1 | > 1000 µg/mL
Oc1ncc(Cl)c(O)n1 | > 1000 µg/mL

Could you now look at the following molecule, please?
Request: # lookup: IC50 of O=c1[nH]c(=O)n([C@@H]2O[C@H](CO)[C@@H](O)[C@@H]2O)cc1Br
Result: 32 µg/mL
